// values below are binding signal (PBM E-score (-0.5 to 0.5)); system is ztf-11 (F52F12.6) (Caenorhabditis elegans) (UniProt O02274)
Sequence (O02274 212-388): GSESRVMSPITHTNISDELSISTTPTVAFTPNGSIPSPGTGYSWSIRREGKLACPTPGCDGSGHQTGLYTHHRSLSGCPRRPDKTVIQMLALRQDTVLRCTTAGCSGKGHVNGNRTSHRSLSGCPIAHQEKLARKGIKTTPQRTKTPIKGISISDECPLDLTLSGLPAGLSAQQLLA
Readout Label: binding signal (PBM E-score (-0.5 to 0.5))

Sequence Entry | Observed Result
AAGTTTTC (double strand) [8-mer AAGTTTTC] | 0.48
AAACTTTG (double strand) [8-mer AAACTTTG] | 0.481
AAAGTTTG (double strand) [8-mer AAAGTTTG] | 0.494
GAAACTTC (double strand) [8-mer GAAACTTC] | 0.481

* * *

// values below are binding signal (PBM E-score (-0.5 to 0.5)); system is ceh-53 (C09G12.1) (Caenorhabditis elegans)
Sequence (chain, as listed by the source): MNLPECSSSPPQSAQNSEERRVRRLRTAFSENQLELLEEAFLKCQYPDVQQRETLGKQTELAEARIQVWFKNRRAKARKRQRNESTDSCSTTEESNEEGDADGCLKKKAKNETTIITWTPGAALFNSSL
Readout Label: binding signal (PBM E-score (-0.5 to 0.5))

Sequence Entry | Target | Observed Result
GGATTAAC (double strand) [8-mer GGATTAAC] | ceh-53 (C09G12.1) (Caenorhabditis elegans) | 0.495
CTAATCCC (double strand) [8-mer CTAATCCC] | ceh-53 (C09G12.1) (Caenorhabditis elegans) | 0.496
ACTAATCC (double strand) [8-mer ACTAATCC] | ceh-53 (C09G12.1) (Caenorhabditis elegans) | 0.497
GCTAATCC (double strand) [8-mer GCTAATCC] | ceh-53 (C09G12.1) (Caenorhabditis elegans) | 0.497

* * *

Target: nhr-3 (H01A20.1) (Caenorhabditis elegans) (UniProt Q9XTJ4)
Sequence: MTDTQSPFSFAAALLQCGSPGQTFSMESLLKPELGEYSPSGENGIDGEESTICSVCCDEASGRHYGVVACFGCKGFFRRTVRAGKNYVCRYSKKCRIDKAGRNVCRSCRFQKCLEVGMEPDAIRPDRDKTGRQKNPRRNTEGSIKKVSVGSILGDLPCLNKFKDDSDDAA
Readout Label: binding signal (PBM E-score (-0.5 to 0.5))

Sequence Entry | Observed Result
AAAGATCA (double strand) [8-mer AAAGATCA] | 0.488
AAAGACCA (double strand) [8-mer AAAGACCA] | 0.459
AGATCAAC (double strand) [8-mer AGATCAAC] | 0.467
ACAGATCA (double strand) [8-mer ACAGATCA] | 0.456
TAAGATCA (double strand) [8-mer TAAGATCA] | 0.477
AAGATCAA (double strand) [8-mer AAGATCAA] | 0.486
AAAGGTCA (double strand) [8-mer AAAGGTCA] | 0.479
AGGTCAAC (double strand) [8-mer AGGTCAAC] | 0.465
AAGATCAC (double strand) [8-mer AAGATCAC] | 0.471
ATAGATCA (double strand) [8-mer ATAGATCA] | 0.466
AGAGATCA (double strand) [8-mer AGAGATCA] | 0.462
AAGATCAG (double strand) [8-mer AAGATCAG] | 0.466
AGATCAAT (double strand) [8-mer AGATCAAT] | 0.473
GAGATCAA (double strand) [8-mer GAGATCAA] | 0.46
AAGACCAA (double strand) [8-mer AAGACCAA] | 0.457

* * *

System: syd-9 (ZK867.1) (Caenorhabditis elegans)
Sequence: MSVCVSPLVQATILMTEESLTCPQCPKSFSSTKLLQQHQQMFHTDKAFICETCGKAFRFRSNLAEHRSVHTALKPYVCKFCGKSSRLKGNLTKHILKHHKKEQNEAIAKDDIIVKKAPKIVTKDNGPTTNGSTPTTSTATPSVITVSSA
This section presents sequences with their documented binding signal (PBM E-score (-0.5 to 0.5)) values.
Readout Label: binding signal (PBM E-score (-0.5 to 0.5))

Sequence Entry | Target | Observed Result
GAACTGTA (double strand) [8-mer GAACTGTA] | syd-9 (ZK867.1) (Caenorhabditis elegans) | 0.492
ATACAGTA (double strand) [8-mer ATACAGTA] | syd-9 (ZK867.1) (Caenorhabditis elegans) | 0.492
ATACTGTA (double strand) [8-mer ATACTGTA] | syd-9 (ZK867.1) (Caenorhabditis elegans) | 0.493
CTACAGTA (double strand) [8-mer CTACAGTA] | syd-9 (ZK867.1) (Caenorhabditis elegans) | 0.49
GTACTGTA (double strand) [8-mer GTACTGTA] | syd-9 (ZK867.1) (Caenorhabditis elegans) | 0.496
ACTGTACA (double strand) [8-mer ACTGTACA] | syd-9 (ZK867.1) (Caenorhabditis elegans) | 0.494
